Value source: paper PMC7846792

- measurement-target: MIK2 ectodomain (MIK2^ECD, residues 1–709) (Arabidopsis thaliana) (UniProt Q8VZG8)
- experiment: ITC; 200 μM SCOOP12 in the syringe injected into 20 μM MIK2 ectodomain in the cell; 25 °C; 20 mM sodium citrate pH 5.0, 150 mM NaCl; N fitted to 1
measured-parameter: Kd (µM)

substance: SERINE RICH ENDOGENOUS PEPTIDE 12 (SCOOP12) synthetic peptide
unit-text: µM
result: 4.6

====

- System: A. thaliana seedlings
- experiment: Seedling growth inhibition (fresh weight)
- Format: in vivo, Arabidopsis thaliana
- study-conditions: Col-0, 10 μM, replicate 8; mock mean = 1
No end group written: not given here.
The entries below are paired with their reported Seedling fresh weight (Fig3C), relative to mock.
measured-parameter: Seedling fresh weight (Fig3C), relative to mock

macromolecule-sequence: FTGPSGSGHGGGR [SCOOP10]
result: 0.7096
--
macromolecule-sequence: RAGPSKSGQGGGR [SCOOP7]
result: 0.009098
--
macromolecule-sequence: ETPPSRSRRGGGG [SCOOP1]
result: 0.2305
--
macromolecule-sequence: PVRSSRSPRSPSF [SCOOP2]
result: 0.6005
--
macromolecule-sequence: GTGPSHSGHGGSS [SCOOP9]
result: 0.2365
--
macromolecule-sequence: YLPPSKSRKGKGP [SCOOP13]
result: 0.06975

====

- Test system: A. thaliana seedlings
- experiment: Seedling growth inhibition (fresh weight)
- Type: in vivo, Arabidopsis thaliana
- study-conditions: mik2-1, 10 μM, replicate 4; mock mean = 1
No end group written: not given here.
measured-parameter: Seedling fresh weight (Fig3C), relative to mock

macromolecule-sequence: GTGPSHSGHGGSS [SCOOP9]
result: 0.9062
--
macromolecule-sequence: ETPPSRSRRGGGG [SCOOP1]
result: 0.9738
--
macromolecule-sequence: RAGPSKSGQGGGR [SCOOP7]
result: 0.9062
--
macromolecule-sequence: PVRSSRSPRSPSF [SCOOP2]
result: 0.9434
--
macromolecule-sequence: FTGPSGSGHGGGR [SCOOP10]
result: 0.8791
--
macromolecule-sequence: YLPPSKSRKGKGP [SCOOP13]
result: 1.075

====

- Tested on: A. thaliana seedlings
- experiment: Seedling growth inhibition (fresh weight)
- Type: in vivo, Arabidopsis thaliana
- study-conditions: mik2-1, 1 μM, replicate 12; mock mean = 1
No end group written: not given here.
The entries below are paired with their reported Seedling fresh weight (Fig3C), relative to mock.
measured-parameter: Seedling fresh weight (Fig3C), relative to mock

macromolecule-sequence: RAGPSKSGQGGGR [SCOOP7]
result: 0.9518
--
macromolecule-sequence: ETPPSRSRRGGGG [SCOOP1]
result: 0.9922
--
macromolecule-sequence: FTGPSGSGHGGGR [SCOOP10]
result: 1.123
--
macromolecule-sequence: YLPPSKSRKGKGP [SCOOP13]
result: 1.002
--
macromolecule-sequence: PVRSSRSPRSPSF [SCOOP2]
result: 1.063
--
macromolecule-sequence: GTGPSHSGHGGSS [SCOOP9]
result: 1.039

====

- Test system: A. thaliana seedlings
- experiment: Seedling growth inhibition (fresh weight)
- Assay type: in vivo, Arabidopsis thaliana
- study-conditions: Col-0, 1 μM, replicate 8; mock mean = 1
No end group written: not given here.
measured-parameter: Seedling fresh weight (Fig3C), relative to mock

macromolecule-sequence: PVRSSRSPRSPSF [SCOOP2]
result: 0.9771
//
macromolecule-sequence: RAGPSKSGQGGGR [SCOOP7]
result: 0.07914
//
macromolecule-sequence: ETPPSRSRRGGGG [SCOOP1]
result: 0.6453
//
macromolecule-sequence: GTGPSHSGHGGSS [SCOOP9]
result: 0.7457
//
macromolecule-sequence: FTGPSGSGHGGGR [SCOOP10]
result: 0.8705
//
macromolecule-sequence: YLPPSKSRKGKGP [SCOOP13]
result: 0.7792

====

- Test system: A. thaliana seedlings
- experiment: Seedling growth inhibition (fresh weight)
- Type: in vivo, Arabidopsis thaliana
- study-conditions: Col-0, 10 μM, replicate 4; mock mean = 1
No end group written: not given here.
The label depends only on Seedling fresh weight (Fig3C), relative to mock: Y if it is at least 0.2, N if it is smaller.

macromolecule-sequence: ETPPSRSRRGGGG [SCOOP1]
measurement-target: A. thaliana seedlings
class-name: N
//
macromolecule-sequence: PVRSSRSPRSPSF [SCOOP2]
measurement-target: A. thaliana seedlings
class-name: Y
//
macromolecule-sequence: GTGPSHSGHGGSS [SCOOP9]
measurement-target: A. thaliana seedlings
class-name: N
//
macromolecule-sequence: FTGPSGSGHGGGR [SCOOP10]
measurement-target: A. thaliana seedlings
class-name: Y
//
macromolecule-sequence: RAGPSKSGQGGGR [SCOOP7]
measurement-target: A. thaliana seedlings
class-name: N
//
macromolecule-sequence: YLPPSKSRKGKGP [SCOOP13]
measurement-target: A. thaliana seedlings
class-name: N

====

The entries below are paired with their reported Seedling fresh weight (Fig3C), relative to mock.
- Test system: A. thaliana seedlings
- experiment: Seedling growth inhibition (fresh weight)
- Format: in vivo, Arabidopsis thaliana
- study-conditions: Col-0, 10 μM, replicate 10; mock mean = 1
No end group written: not given here.
measured-parameter: Seedling fresh weight (Fig3C), relative to mock

macromolecule-sequence: ETPPSRSRRGGGG [SCOOP1]
result: 0.1607
//
macromolecule-sequence: YLPPSKSRKGKGP [SCOOP13]
result: 0.04549
//
macromolecule-sequence: RAGPSKSGQGGGR [SCOOP7]
result: 0.009098
//
macromolecule-sequence: GTGPSHSGHGGSS [SCOOP9]
result: 0.2032
//
macromolecule-sequence: PVRSSRSPRSPSF [SCOOP2]
result: 0.555
//
macromolecule-sequence: FTGPSGSGHGGGR [SCOOP10]
result: 0.5519

====

- System: A. thaliana seedlings
- experiment: Seedling growth inhibition (fresh weight)
- Format: in vivo, Arabidopsis thaliana
- study-conditions: mik2-1, 1 μM, replicate 1; mock mean = 1
No end group written: not given here.
measured-parameter: Seedling fresh weight (Fig3C), relative to mock

macromolecule-sequence: YLPPSKSRKGKGP [SCOOP13]
result: 0.9552
--
macromolecule-sequence: ETPPSRSRRGGGG [SCOOP1]
result: 1.15
--
macromolecule-sequence: FTGPSGSGHGGGR [SCOOP10]
result: 0.8644
--
macromolecule-sequence: PVRSSRSPRSPSF [SCOOP2]
result: 0.8038
--
macromolecule-sequence: RAGPSKSGQGGGR [SCOOP7]
result: 1.0796
--
macromolecule-sequence: GTGPSHSGHGGSS [SCOOP9]
result: 0.8374

====

The entries below are paired with their reported Seedling fresh weight (Fig3C), relative to mock.
- Test system: A. thaliana seedlings
- experiment: Seedling growth inhibition (fresh weight)
- Assay type: in vivo, Arabidopsis thaliana
- study-conditions: mik2-1, 10 μM, replicate 5; mock mean = 1
No end group written: not given here.
measured-parameter: Seedling fresh weight (Fig3C), relative to mock

macromolecule-sequence: RAGPSKSGQGGGR [SCOOP7]
measurement-target: A. thaliana seedlings
result: 1.001
//
macromolecule-sequence: YLPPSKSRKGKGP [SCOOP13]
measurement-target: A. thaliana seedlings
result: 0.8419
//
macromolecule-sequence: ETPPSRSRRGGGG [SCOOP1]
measurement-target: A. thaliana seedlings
result: 0.9332
//
macromolecule-sequence: GTGPSHSGHGGSS [SCOOP9]
measurement-target: A. thaliana seedlings
result: 0.9941
//
macromolecule-sequence: PVRSSRSPRSPSF [SCOOP2]
measurement-target: A. thaliana seedlings
result: 0.8859
//
macromolecule-sequence: FTGPSGSGHGGGR [SCOOP10]
measurement-target: A. thaliana seedlings
result: 0.9096

====

- System: A. thaliana seedlings
- experiment: Seedling growth inhibition (fresh weight)
- Assay type: in vivo, Arabidopsis thaliana
- study-conditions: mik2-1, 1 μM, replicate 5; mock mean = 1
No end group written: not given here.
measured-parameter: Seedling fresh weight (Fig3C), relative to mock

macromolecule-sequence: FTGPSGSGHGGGR [SCOOP10]
result: 0.8139
--
macromolecule-sequence: ETPPSRSRRGGGG [SCOOP1]
result: 1.076
--
macromolecule-sequence: RAGPSKSGQGGGR [SCOOP7]
result: 1.006
--
macromolecule-sequence: YLPPSKSRKGKGP [SCOOP13]
result: 1.026
--
macromolecule-sequence: GTGPSHSGHGGSS [SCOOP9]
result: 0.9081
--
macromolecule-sequence: PVRSSRSPRSPSF [SCOOP2]
result: 1.096

====

- measurement-target: MIK2 ectodomain (MIK2ECD, residues 1–709) (Arabidopsis thaliana, UniProt Q8VZG8)
- Construct: Arabidopsis thaliana MIK2 (residues 1–709); StrepII-9xHis (TEV-cleavable) (C, cleaved yes); made in house; host or cells: Trichoplusia ni Tnao38 insect cells (baculovirus, modified pFastBac)
- Sequence (Q8VZG8 44-709): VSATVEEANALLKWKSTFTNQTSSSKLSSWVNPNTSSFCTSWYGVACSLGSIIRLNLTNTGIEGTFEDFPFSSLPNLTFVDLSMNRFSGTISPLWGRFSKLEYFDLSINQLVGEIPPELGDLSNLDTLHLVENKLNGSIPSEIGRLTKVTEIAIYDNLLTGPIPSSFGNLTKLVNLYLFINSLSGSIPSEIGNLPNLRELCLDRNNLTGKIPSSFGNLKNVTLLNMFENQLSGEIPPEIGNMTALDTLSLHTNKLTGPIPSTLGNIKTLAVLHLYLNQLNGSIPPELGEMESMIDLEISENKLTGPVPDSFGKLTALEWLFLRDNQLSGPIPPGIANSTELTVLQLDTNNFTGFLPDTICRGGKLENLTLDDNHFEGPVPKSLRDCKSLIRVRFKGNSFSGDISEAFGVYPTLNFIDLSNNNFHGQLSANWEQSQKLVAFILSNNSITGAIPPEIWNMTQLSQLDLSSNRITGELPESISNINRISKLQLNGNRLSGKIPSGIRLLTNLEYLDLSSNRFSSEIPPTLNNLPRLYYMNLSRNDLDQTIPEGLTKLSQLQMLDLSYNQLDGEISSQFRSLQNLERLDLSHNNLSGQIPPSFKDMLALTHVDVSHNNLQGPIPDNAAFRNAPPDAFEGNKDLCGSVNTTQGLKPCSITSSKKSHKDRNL
- experiment: ITC, MIK2 vs SCOOP12
- Type: binding
No end group written: not given here.

macromolecule-sequence: PVRSSQSSQAGGR [SCOOP12]
unit-text: µM
Kd: 4.56
